These entries and their values trace back to PubChem BioAssay.

# Test system: Human papillomavirus type 1a protein E7 (residues 44-93)
# procedure_details: HPV1a E7 fragment binders on microarrays, primary screen, biochemical, small-molecule microarray, residues 44-93, 635 nm fluorescence (AID 1108);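 also: E7 fragment applied at 1 µg/mL in TBST for 1 h at 4 C; score combines spot fluorescence with its signal to noise ratio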
# condition_set: small-molecule microarray binding, fluorescence 635 nm; higher = more signal
The entries below come with measured composite z-score values attached.
# respond with the number and nothing more

CCC[C@@H]1C[C@@]1(CCC)[C@@H](NP(=O)(c1ccccc1)c1ccccc1)c1ccc(Cl)cc1 :: -0.213
COc1ccc(C(O)C2C=CC3C(=O)N(c4ccccc4)C(=O)C3N2Nc2ccc(C#N)cc2)c2ccccc12 (centres undefined) :: 0.596
CCCc1cccc(=O)o1 :: 0.364
CC(C)CNC(=O)[C@@]1(c2ccc([N+](=O)[O-])cc2)CC(=O)N(C2CCCCC2)[C@@H]1c1ccc(CO)cc1I :: 1.11
COC(=O)[C@@]1(Cc2ccc(OC)cc2)[C@H]2c3cc(C(=O)N4CCCC4)n(CCc4cc5ccccc5[nH]4)c3C[C@H]2CN1C(=O)c1ccccc1 :: 1.41
CN(C)CCCCNC(=O)[C@H]1C[C@H]2C(=O)N[C@@H](CCCCN(C)C)C(=O)N2[C@H]1c1cccc(OCCO)c1 :: 1.41

Documented composite z-score of "CC(C)N1C(=O)[C@@]2(c3ccc([N+](=O)[O-])cc3)CC(=O)N(C3CCCCC3)[C@@H]2c2ccc(CO)cc21" : -0.242

Documented composite z-score of "COCCOC(=O)N1C(=O)[C@@]2(c3cc(C#CC4(O)CCCCCC4)ccc31)[C@H](C(N)=O)[C@H]1C(=O)O[C@H](c3ccccc3)[C@H](c3ccccc3)N1[C@@H]2c1ccc(O)cc1" : 1.4

====

The entries below come with measured composite z-score values attached.
# procedure_details: small-molecule binders of probe aNOTCH3, primary screen, biochemical, small-molecule microarray, 635/667 nm fluorescence (AID 1120);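 also: probe is a biotin-tagged antibody raised against NOTCH3 rather than NOTCH3 protein; score merges spot fluorescence near 667 nm with spot signal to noise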
# condition_set: higher = more signal
# respond with the number and nothing more

Some entries whose results are on file:
C[C@H]1C2=C3C(CC[C@H]4C(OCc5ccc(F)cc5C(F)(F)F)OC[C@](C)([C@@H]34)N(C(=O)OC(C)(C)C)C2)C(CO)C1CO (some centres not stated) :: 0.266
CCOC(=O)C[C@H]1[C@H](OC(=O)c2ccc(C(=O)c3ccccc3)cc2)[C@@H](NC(=O)c2ccc3ccccc3c2)c2cc(OCCCO)ccc2N1C(=O)c1ccccc1 :: 0.0893
C=CC1c2cc(O)c(OC)cc2CCN1Cc1sc2ccccc2c1Cl (configuration not stated) :: 0.177
C=C[C@@H](C)[C@H](OC(=O)Nc1ccc(SC)cc1)c1ccc(OCCO)cc1 :: 0.132
COCCOC(=O)N1C(=O)[C@@]2(c3cc(C#CC4=CCCCC4)ccc31)[C@H](c1ccccc1OCCO)N1[C@H](c3ccccc3)[C@H](c3ccccc3)OC(=O)[C@H]1[C@@H]2C(=O)N1CCc2cc(OC)c(OC)cc2C1 :: -0.406

Documented composite z-score of "C=CCOC(=O)[C@H]1[C@@H]2C(=O)O[C@@H](c3ccccc3)[C@@H](c3ccccc3)N2[C@@H](c2ccc(OCCOC(=O)[C@H]3C[C@H]4C(=O)N[C@@H](Cc5ccccc5)C(=O)N4[C@H]3c3cccc(OCCO)c3)cc2)[C@]12C(=O)Nc1ccc(I)cc12" : 0.071

Documented composite z-score of "O=C1c2ccccc2[C@@]2(Cc3ccccc3N(C3CC3)C2=O)[C@H](c2ccc(CO)cc2)N1C1CCCCC1" : -0.125
